- system-under-test: Potassium voltage-gated channel subfamily A member 6 (Rattus norvegicus) (UniProt P17659)
- Sequence (P17659 whole entry): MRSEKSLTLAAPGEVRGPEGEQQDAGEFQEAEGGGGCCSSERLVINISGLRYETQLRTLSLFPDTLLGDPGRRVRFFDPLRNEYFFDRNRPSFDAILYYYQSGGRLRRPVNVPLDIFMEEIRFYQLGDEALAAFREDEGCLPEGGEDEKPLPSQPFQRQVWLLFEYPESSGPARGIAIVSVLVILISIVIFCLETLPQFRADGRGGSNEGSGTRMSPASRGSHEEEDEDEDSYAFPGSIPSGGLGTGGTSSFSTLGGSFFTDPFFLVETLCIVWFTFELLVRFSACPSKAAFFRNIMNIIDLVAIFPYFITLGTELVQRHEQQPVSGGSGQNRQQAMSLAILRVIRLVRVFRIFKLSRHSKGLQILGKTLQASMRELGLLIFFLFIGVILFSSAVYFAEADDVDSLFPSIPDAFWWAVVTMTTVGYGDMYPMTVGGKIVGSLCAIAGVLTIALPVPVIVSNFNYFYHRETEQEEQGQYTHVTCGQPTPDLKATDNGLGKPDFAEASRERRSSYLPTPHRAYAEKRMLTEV
- protocol-text: Inhibition of rat Kv1.6 expressed in Xenopus laevis oocytes at 1 uM at -90 mV holding potential by two-electrode voltage clamp assay relative to control
- Type: cell-based
Active and inactive are the calls of the source. No cut-off for these calls is given here.
assay-metric: inhibition

Consider the worked cases shown below.
1) Nc1ncc(/C=C/CNC(=O)c2cc(Br)c(Br)[nH]2)[nH]1 = inactive
2) Nc1nc(CCCNC(=O)C2Cc3ccccc3N2)c[nH]1 (configuration not stated) = inactive
3) Nc1nc(CCCNC(=O)c2cc(Br)c(Br)[nH]2)c[nH]1 = inactive
4) Nc1nc(/C=C/CNC(=O)c2cc3ccccc3[nH]2)c[nH]1 = 42%

Using Potassium voltage-gated channel subfamily A member 6 (Rattus norvegicus) (UniProt P17659) as the test system, report measured inhibition of Nc1nc(/C=C/CNC(=O)c2cc3cc(Cl)ccc3[nH]2)c[nH]1 .
inactive

Using Potassium voltage-gated channel subfamily A member 6 (Rattus norvegicus) (UniProt P17659) as the test system, report measured inhibition of Nc1nc(CCCNC(=O)c2cc3ccccc3[nH]2)c[nH]1 .
inactive

Using Potassium voltage-gated channel subfamily A member 6 (Rattus norvegicus) (UniProt P17659) as the test system, report measured inhibition of Nc1nc(/C=C/CNC(=O)c2cccnc2)c[nH]1 .
inactive

Using Potassium voltage-gated channel subfamily A member 6 (Rattus norvegicus) (UniProt P17659) as the test system, report measured inhibition of Nc1nc(/C=C/CNC(=O)C2CCNCC2)c[nH]1 .
inactive

Hello, the source for this data is ChEMBL document CHEMBL4190320, in case you need it.
